Biological target: Luciferin 4-monooxygenase (Photinus pyralis) (UniProt P08659)
Sequence (P08659 whole entry, looked up): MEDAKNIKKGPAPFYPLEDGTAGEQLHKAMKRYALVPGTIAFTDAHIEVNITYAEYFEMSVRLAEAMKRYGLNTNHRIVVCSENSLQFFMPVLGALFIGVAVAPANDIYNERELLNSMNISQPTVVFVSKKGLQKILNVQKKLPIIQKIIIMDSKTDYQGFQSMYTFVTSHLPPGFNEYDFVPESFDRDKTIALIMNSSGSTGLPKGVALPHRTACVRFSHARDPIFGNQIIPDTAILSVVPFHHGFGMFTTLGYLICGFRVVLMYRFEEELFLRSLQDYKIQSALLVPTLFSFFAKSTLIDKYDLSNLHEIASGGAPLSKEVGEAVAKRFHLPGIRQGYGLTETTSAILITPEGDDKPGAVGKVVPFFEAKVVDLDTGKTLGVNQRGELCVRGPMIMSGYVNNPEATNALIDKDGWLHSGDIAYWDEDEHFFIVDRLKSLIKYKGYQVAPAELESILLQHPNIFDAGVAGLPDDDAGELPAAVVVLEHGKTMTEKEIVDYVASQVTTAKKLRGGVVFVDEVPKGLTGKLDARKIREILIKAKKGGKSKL
Assay: qHTS profiling assay for firefly luciferase inhibitor/activator using purifed enzyme and Km concentrations of substrates (counterscreen for miR-21 project); further: nearly all actives have a fitted effect of over 55% in size
Details: purified FLuc, luminescence inhibition; series mostly up to 57.5 µM
Text: MLPCN Grant: 1 R21 NS059478-01 (miR-21 grant) Assay Provider: NCGC NCGC Assay Overview: Firefly (Photinus pyralis) luciferase is one of the most commonly used transcriptional reporters for a number of reasons. […] Although light produced in a bioluminescence reaction is of lower intensity than that produced during fluorescence emission, this is offset by little to no background light inherent to luminescent assays. […]
Out of some 360,000 compounds screened, about 25,000 (6.9%) were called active. About 9% were inconclusive and are not listed. The call rests on the fitted dose curve; in most records, active means well fitted inhibition curve with a large enough effect; inconclusive means small, poorly fitted or top-dose-only effect; inactive means flat fitted curve, though single readings scatter. What follows is part of a selection rich in actives, with near analogues and random picks from the rest.
Could you please pick one outcome from this set? active, inactive

>>> label("Cc1cc(N/N=C\\c2ccc(Br)cc2)nc(-n2nc(C)cc2C)n1")
"inactive"

Shifting focus to the compound that follows.
Request: // outcome(item) with item = CC(=O)c1c(C)oc2ccc(NS(=O)(=O)c3ccc(C(=O)O)cc3)cc12
Response: inactive
